- assay_details: In vivo pharmacokinetics and oral bioavailability in rat
- Set-up: species or system male Sprague-Dawley rats
- study_conditions: male, Sprague-Dawley, plasma, single dose, IV 5 mg/kg
measurement_name: clearance (mL/min/kg)

smiles_notation=O=[N+]([O-])c1cc(-n2nccn2)ccc1NCCCCCCN1C[C@H](O)[C@@H](O)[C@H](O)[C@H]1CO units_symbol=mL/min/kg experimental_value=72.9

---

- assay_details: In vivo pharmacokinetics in mouse
- study_conditions: mouse, plasma, mice; read-out: Plasma t½
measurement_name: half-life

compound="[N-]=[N+]=Nc1ccc(NCCCCCCN2C[C@H](O)[C@@H](O)[C@H](O)[C@H]2CO)c([N+](=O)[O-])c1 [UV-5]" experimental_value="~240 min"
